Hello, the source for this data is paper PMC5007619, in case you need it.

molecular target: UniProtKB Q92793; assay: H3K18ac Western blot of nucleosome acetylation by purified CBP
Sequence (Q92793 2-2442): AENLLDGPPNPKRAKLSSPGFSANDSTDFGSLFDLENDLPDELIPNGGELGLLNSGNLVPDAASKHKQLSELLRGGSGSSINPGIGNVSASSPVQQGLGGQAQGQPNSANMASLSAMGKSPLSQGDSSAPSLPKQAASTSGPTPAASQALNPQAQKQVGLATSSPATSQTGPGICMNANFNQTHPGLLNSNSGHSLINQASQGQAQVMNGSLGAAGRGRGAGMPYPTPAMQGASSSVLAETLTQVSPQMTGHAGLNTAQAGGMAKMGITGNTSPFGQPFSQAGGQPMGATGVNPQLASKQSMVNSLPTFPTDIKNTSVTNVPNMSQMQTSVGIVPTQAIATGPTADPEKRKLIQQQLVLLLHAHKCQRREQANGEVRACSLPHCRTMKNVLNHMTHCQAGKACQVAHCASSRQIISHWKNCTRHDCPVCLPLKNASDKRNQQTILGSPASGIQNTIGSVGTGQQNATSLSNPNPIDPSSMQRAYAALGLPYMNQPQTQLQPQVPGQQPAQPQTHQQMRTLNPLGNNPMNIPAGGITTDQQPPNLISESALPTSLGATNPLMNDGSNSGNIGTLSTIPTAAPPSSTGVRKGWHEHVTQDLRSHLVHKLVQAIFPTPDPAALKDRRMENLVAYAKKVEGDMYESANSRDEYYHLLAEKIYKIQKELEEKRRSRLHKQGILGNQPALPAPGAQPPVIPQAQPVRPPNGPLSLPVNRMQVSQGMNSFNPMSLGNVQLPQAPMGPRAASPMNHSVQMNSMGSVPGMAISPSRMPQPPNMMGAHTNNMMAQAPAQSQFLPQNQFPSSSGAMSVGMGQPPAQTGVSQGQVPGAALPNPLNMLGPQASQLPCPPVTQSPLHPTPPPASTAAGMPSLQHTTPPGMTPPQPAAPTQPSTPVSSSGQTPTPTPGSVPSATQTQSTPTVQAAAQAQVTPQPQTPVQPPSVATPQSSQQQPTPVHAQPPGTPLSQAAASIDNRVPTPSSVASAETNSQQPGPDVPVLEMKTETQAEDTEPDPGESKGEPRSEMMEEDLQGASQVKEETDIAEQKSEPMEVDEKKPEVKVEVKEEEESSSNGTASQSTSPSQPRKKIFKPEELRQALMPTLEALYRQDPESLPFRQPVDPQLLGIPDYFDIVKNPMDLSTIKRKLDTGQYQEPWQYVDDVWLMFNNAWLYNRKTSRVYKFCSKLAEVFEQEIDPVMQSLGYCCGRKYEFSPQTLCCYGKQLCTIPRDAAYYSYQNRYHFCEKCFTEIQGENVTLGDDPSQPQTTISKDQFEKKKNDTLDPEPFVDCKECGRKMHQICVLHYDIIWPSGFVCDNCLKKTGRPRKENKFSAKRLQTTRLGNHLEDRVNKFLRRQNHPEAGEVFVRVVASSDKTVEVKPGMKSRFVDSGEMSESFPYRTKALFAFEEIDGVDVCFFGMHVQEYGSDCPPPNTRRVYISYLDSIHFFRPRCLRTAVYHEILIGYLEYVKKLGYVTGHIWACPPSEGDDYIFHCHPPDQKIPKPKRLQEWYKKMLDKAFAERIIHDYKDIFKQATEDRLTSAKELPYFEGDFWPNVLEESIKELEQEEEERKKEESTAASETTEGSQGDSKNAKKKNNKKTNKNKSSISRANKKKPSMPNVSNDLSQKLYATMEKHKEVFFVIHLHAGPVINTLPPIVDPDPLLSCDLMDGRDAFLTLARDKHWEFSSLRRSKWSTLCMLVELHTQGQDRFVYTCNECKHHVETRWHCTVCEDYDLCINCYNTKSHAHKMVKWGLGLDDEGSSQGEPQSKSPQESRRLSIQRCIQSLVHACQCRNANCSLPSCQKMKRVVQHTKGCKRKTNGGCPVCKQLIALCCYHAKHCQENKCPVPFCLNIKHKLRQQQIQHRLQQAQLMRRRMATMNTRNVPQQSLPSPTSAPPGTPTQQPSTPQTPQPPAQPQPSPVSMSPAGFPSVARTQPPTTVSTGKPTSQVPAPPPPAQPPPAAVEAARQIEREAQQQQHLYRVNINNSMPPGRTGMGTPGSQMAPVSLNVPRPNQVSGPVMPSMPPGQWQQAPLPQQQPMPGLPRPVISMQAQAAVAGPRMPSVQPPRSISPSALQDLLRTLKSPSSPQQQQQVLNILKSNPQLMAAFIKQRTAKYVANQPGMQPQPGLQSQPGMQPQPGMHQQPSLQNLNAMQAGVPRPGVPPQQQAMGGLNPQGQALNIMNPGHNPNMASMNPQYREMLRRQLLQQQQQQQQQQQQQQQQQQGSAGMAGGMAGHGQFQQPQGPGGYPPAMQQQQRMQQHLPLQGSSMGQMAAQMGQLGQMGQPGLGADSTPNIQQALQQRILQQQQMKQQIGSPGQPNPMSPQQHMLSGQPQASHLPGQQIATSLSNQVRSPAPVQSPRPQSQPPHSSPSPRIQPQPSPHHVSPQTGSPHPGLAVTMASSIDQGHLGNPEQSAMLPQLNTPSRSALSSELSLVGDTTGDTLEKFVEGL
pEC50: −log10 of the molar value.

compound: CCC(=O)N1CCOc2c(cc(-c3ccc(OC)c(OC)c3)cc2OC[C@H]2CCCN(C)C2)C1 [I-CBP112]
pEC50: ~5.70
